The reported measurements were obtained from patent US20100028467A1.

system: U46619 (thromboxane A2 mimetic drug)-induced platelet aggregation; test: Platelet aggregation inhibition test (aggregometer), U46619-induced; format: cell-based, rat; settings: Platelet; U46619 2˜4×10^−6M with near-threshold collagen; rat adjusted PRP
endpoint: pIC50
Give bare numbers, as −log10 of the molar value.

Can you share its pIC50? I mean this compound: CC(=O)Oc1ccccc1C(=O)O 3.29

---

Exercise: state measured PT for each of the molecules provided.
test system: human plasma coagulation; experiment: Anti-coagulation test, PT (prothrombin time); format: biochemical
Numbers only, in s.

Examples from the recorded data:
>>> measuredresult("C=C(CCC=C(C)C)[C@H]1CC[C@]2(C)[C@@H]1[C@H](O)C[C@@H]1[C@@]3(C)CC[C@H](O[C@@H]4O[C@H](CO)[C@@H](O)[C@H](O)[C@H]4O[C@@H]4O[C@H](CO)[C@@H](O)[C@H](O)[C@H]4O)C(C)(C)[C@@H]3CC[C@]12C [ginsenoside Rk1]")
29.8
>>> measuredresult("CC(C)=CCC[C@](C)(O)[C@H]1CC[C@]2(C)[C@@H]1[C@H](O)C[C@@H]1[C@@]3(C)CC[C@H](O[C@@H]4O[C@H](CO)[C@@H](O)[C@H](O)[C@H]4O[C@@H]4O[C@H](CO)[C@@H](O)[C@H](O)[C@H]4O)C(C)(C)[C@@H]3CC[C@]12C [20(S)-ginsenosides Rg3, 20(S)-ginsenoside Rg3]")
23.5
>>> measuredresult("CC(C)=CC/C=C(\\C)[C@H]1CC[C@]2(C)[C@@H]1[C@H](O)C[C@@H]1[C@@]3(C)CC[C@H](O[C@@H]4O[C@H](CO)[C@@H](O)[C@H](O)[C@H]4O[C@@H]4O[C@H](CO)[C@@H](O)[C@H](O)[C@H]4O)C(C)(C)[C@@H]3CC[C@]12C [ginsenoside Rg5]")
28.1

--- query ---
Can you share its PT? I mean this molecule: CC(C)=CCC[C@](C)(O)[C@H]1CC[C@]2(C)[C@@H]1[C@H](O)C[C@@H]1[C@@]3(C)CC[C@H](O[C@@H]4O[C@H](CO)[C@@H](O)[C@H](O)[C@H]4O[C@@H]4O[C@H](CO)[C@@H](O)[C@H](O)[C@H]4O)C(C)(C)[C@@H]3CC[C@]12C [20(R)-ginsenosides Rg3, 20(R)-ginsenoside Rg3] 24.1
